Hello, the source for this data is paper PMC9516332, in case you need it.

Kindly supply the reported inhibition at 1 µM values for the records listed here.
# assayed system: panel of 255 wild-type kinases (Homo sapiens)
# test details: Kinase panel profiling at 1 µmol/L (MSA or IMAP), percentage inhibition
# Type: biochemical
# test parameters: kinase SGK3; 1 µmol/L single concentration; read-out: %-inhibition at 1 µmol/L, SGK3
One number for each entry, in %.

# count of solved cases: 4
compound_structure=CCc1nc(C(N)=O)c(Nc2ccc(N3CCC(N4CCN(C)CC4)CC3)c(OC)c2)nc1NC1CCOCC1 assayed_system="panel of 255 wild-type kinases (Homo sapiens)" quantity_name="inhibition at 1 µM" unit_descriptor=% observed=-18
compound_structure=O=C(Nc1cnn2ccc(N3CCC[C@@H]3c3cc(F)ccc3F)nc12)N1CC[C@H](O)C1 assayed_system="panel of 255 wild-type kinases (Homo sapiens)" quantity_name="inhibition at 1 µM" unit_descriptor=% observed=-4.61
compound_structure=Cn1cnc2c(F)c(Nc3ccc(Br)cc3Cl)c(C(=O)NOCCO)cc21 assayed_system="panel of 255 wild-type kinases (Homo sapiens)" quantity_name="inhibition at 1 µM" unit_descriptor=% observed=-4
compound_structure=COc1ccc(CN2C3CC2CN(c2ccc(-c4cc(OCC(C)(C)O)cn5ncc(C#N)c45)cn2)C3)cn1 assayed_system="panel of 255 wild-type kinases (Homo sapiens)" quantity_name="inhibition at 1 µM" unit_descriptor=% observed=-0.72

For every listed record, write down its inhibition at 1 µM.
1. CO[C@]1(C(=O)N[C@@H](C)c2ccc(-n3cc(F)cn3)nc2)CC[C@H](c2nc(C)cc(Nc3cc(C)[nH]n3)n2)CC1
2. C[C@H]1Oc2cc(cnc2N)-c2c(nn(C)c2C#N)CN(C)C(=O)c2ccc(F)cc21

1. -0.536
2. 7.56

* * *

# System: 134 cancer cell lines
# test details: Cell viability assay (ATPlite, 72 hours), IC50 on cancer cell line panel
# test parameters: Homo sapiens, SW-620, read-out: IC50 in cell proliferation assay, cell line SW620
pIC50: −log10 of the molar value.
Field: pIC50. Provide a value for each of the compounds that follow.

Observe how each entry below is paired with its result.
compound_structure=FC(F)(F)c1ccc(CNc2ccc(Cc3c[nH]c4ncc(Cl)cc34)cn2)cn1 assayed_system="134 cancer cell lines" observed="< 4.50"
compound_structure=Cc1cc(Nc2ncnc3ccc(NC4=NC(C)(C)CO4)cc23)ccc1Oc1ccn2ncnc2c1 assayed_system="134 cancer cell lines" observed="< 4.50"
compound_structure=CCN1CCN(c2ccc(Nc3cc(N(C)C(=O)Nc4c(Cl)c(OC)cc(OC)c4Cl)ncn3)cc2)CC1 assayed_system="134 cancer cell lines" observed="< 5.50"

// switching to the query compound
Noted for CC(C)(C)c1nc(-c2cccc(NS(=O)(=O)c3c(F)cccc3F)c2F)c(-c2ccnc(N)n2)s1 : its pIC50 reads < 5.00

* * *

Would you kindly list inhibition at 1 µM for each of these molecules?
# assayed system: panel of 255 wild-type kinases (Homo sapiens, UniProt P04629)
# Sequence (P04629 33-796): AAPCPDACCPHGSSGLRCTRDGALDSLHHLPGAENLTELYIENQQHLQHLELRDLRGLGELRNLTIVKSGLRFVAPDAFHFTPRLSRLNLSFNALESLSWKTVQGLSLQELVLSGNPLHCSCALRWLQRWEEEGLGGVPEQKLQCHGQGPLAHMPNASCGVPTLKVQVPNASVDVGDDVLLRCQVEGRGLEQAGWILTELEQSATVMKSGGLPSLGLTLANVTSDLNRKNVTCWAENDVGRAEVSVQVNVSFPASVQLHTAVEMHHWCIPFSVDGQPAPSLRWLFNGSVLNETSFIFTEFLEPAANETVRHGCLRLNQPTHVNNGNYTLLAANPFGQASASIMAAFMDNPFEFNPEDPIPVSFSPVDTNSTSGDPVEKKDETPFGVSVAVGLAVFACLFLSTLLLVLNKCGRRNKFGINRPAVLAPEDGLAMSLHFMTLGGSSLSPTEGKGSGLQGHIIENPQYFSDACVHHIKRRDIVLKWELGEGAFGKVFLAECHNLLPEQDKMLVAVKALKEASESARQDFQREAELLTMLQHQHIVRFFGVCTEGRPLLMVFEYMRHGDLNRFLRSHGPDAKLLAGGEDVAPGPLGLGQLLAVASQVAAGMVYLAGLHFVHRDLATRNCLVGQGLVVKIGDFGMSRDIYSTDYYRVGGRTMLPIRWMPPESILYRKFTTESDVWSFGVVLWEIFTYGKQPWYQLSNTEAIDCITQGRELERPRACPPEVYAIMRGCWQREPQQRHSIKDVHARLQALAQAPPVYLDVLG
# test details: Kinase panel profiling at 1 µmol/L (MSA or IMAP), percentage inhibition
# Format: biochemical
# test parameters: kinase TRKA; 1 µmol/L single concentration; read-out: %-inhibition at 1 µmol/L, TRKA
Give bare numbers, in %.

Some molecules with recorded inhibition at 1 µM:
compound_structure=Cn1cnc2c(F)c(Nc3ccc(Br)cc3F)c(C(=O)NOCCO)cc21 unit_descriptor=% observed=-5
compound_structure=CCN1C(=O)N(c2c(F)c(OC)cc(OC)c2F)Cc2cnc3[nH]c(CN4CCOCC4)cc3c21 unit_descriptor=% observed=14
compound_structure=COc1cc2ncnc(Nc3ccc(F)c(Cl)c3)c2cc1NC(=O)/C=C/CN1CCCCC1 unit_descriptor=% observed=6

Quick request: inhibition at 1 µM for each listed item, please.
1. FC(F)(F)c1ccc(CNc2ccc(Cc3c[nH]c4ncc(Cl)cc34)cn2)cn1
2. Cn1cc(-c2cc3c(N4CCN(c5ncc([C@@](C)(N)c6ccc(F)cc6)cn5)CC4)ncnn3c2)cn1
3. C=CC(=O)N1CCC([C@@H]2CCNc3c(C(N)=O)c(-c4ccc(Oc5ccccc5)cc4)nn32)CC1
4. Cc1nc(NC(=O)N2CCC[C@H]2C(N)=O)sc1-c1ccnc(C(C)(C)C(F)(F)F)c1

1. 79
2. 65
3. 9
4. 6.61
